These entries and their values trace back to PubChem BioAssay AID1259417.

PROTOCOL DETAILS: M. tuberculosis growth inhibition, HTS (AID 1259417);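 further: bacteria grown with compound for 5 days at 37 °C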
RUN PARAMETERS: M. tuberculosis DsRed fluorescence growth inhibition; concentration not given here
Out of some 1,100 compounds screened, about 760 (69%) were called active. How the calls were made is not given here. So high a share suggests a set chosen from earlier hits. The list shows a part of the results.
Possible outcomes: y = active, n = inactive

{"columns": ["COMPOUND", "CATEGORY"],
 "data": [
  ["c1ccc(COc2ccccc2CNC23CC4CC(CC(C4)C2)C3)cc1", "n"],
  ["COC(=O)C(CC(C)C)NC(=O)/C=C/c1ccccc1Cl (stereo unspecified)", "n"],
  ["c1c2c(cc3sc(N4CCCC4)nc13)OCO2", "y"],
  ["CN(C)c1ccc(CNC23CC4CC(CC(C4)C2)C3)cc1", "y"],
  ["Cc1cccc(OCCCn2cnc3cc(C)c(C)cc32)c1", "y"],
  ["O=C(NCCN1CCOCC1)c1ccc([N+](=O)[O-])cc1[N+](=O)[O-]", "y"]
]}
